target_under_test: Ryanodine receptor 2 (Canis lupus familiaris)
test_summary: Displacement of [3H]ryanodine binding to ryanodine receptor(ryr) in canine left ventricular membranes
Type: cell membranes
Please respond with reported Relative activity for every item in the list.
Answers are plain numbers.

compound	target_under_test	Relative activity
CC1CCC2(O)C3(C)CC4(O)OC2(NC1=O)C1(O)C3(O)C(OC(=O)c2ccc[nH]2)C(O)(C(C)C)C41C (centres undefined)	Ryanodine receptor 2 (Canis lupus familiaris)	7.4
CONC1C(C)CCC2(O)C3(C)CC4(O)OC12C1(O)C3(O)C(OC(=O)c2ccc[nH]2)C(O)(C(C)C)C41C (centres undefined)	Ryanodine receptor 2 (Canis lupus familiaris)	36
CC(C)C1(O)C(OC(=O)c2ccc[nH]2)C2(O)C3(C)CC4(O)OC5(CC(O)CCC35O)C2(O)C41C (centres undefined)	Ryanodine receptor 2 (Canis lupus familiaris)	0.42

Shifting focus to the compound that follows.
Look up Relative activity for this compound: CO/N=C1\C(C)CCC2(O)C3(C)CC4(O)OC12C1(O)C3(O)C(OC(=O)c2ccc[nH]2)C(O)(C(C)C)C41C (centres undefined)
17

###

test_summary: Inhibitory activity against ryanodine receptor in rabbit muscle
Type: functional, Oryctolagus cuniculus
test_readout: IC50 (nM)
One number for each entry, in nM.

Look up IC50 for this compound: CC(C)[C@@]1(O)[C@@H](OC(=O)c2cc[nH]c2)[C@@]2(O)[C@]3(C)C[C@@]4(O)O[C@@]5([C@H](O)[C@@H](C)CC[C@]35O)[C@@]2(O)[C@@]41C
3.5

###

test_summary: Inhibitory activity against ryanodine receptor in Mouse brain
Format: functional, tissue-based
test_readout: IC50 (nM)
One number for each entry, in nM.

Look up IC50 for this compound: CC(C)[C@@]1(O)[C@@H](OC(=O)c2cc[nH]c2)[C@@]2(O)[C@]3(C)C[C@@]4(O)O[C@@]5([C@H](O)[C@@H](C)CC[C@]35O)[C@@]2(O)[C@@]41C
3.3

###

target_under_test: UniProt:Q8WN72
Sequence (Q8WN72 whole entry): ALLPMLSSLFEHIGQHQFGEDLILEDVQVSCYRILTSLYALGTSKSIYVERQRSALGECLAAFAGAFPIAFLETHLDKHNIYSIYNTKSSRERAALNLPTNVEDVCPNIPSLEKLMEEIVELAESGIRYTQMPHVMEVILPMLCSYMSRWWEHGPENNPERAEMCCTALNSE
test_readout: pKi
Answers are plain numbers, as −log10 of the molar value.

Look up pKi for this compound: CC(C)[C@@]1(O)[C@@H](OC(=O)c2ccc[nH]2)[C@@]2(O)[C@@]3(C)C[C@]4(O)O[C@@]5([C@H](O)[C@@H](C)CC[C@]35O)[C@@]2(O)[C@@]14C
8.74
